assay: Kinetic solubility of the compound at pH 7.4; assay type: physicochemical; conditions: buffer, read-out: Kinetic_solubility
value type: solubility kinetic (µM)

Before answering, review these 3 worked examples.
INSERT INTO measurements (molecule_smiles, measured) VALUES
  ('Cc1cccn2c(=O)cc(Cn3cnc4ccccc43)nc12', 529),
  ('O=c1cc(Cn2cnc3ccccc32)nc2ccc(Cl)cn12', 558),
  ('COc1ccc2nc(Cn3cnc4ccccc43)cc(=O)n2c1', 580);

[a] Cc1ccn2c(=O)cc(Cn3cnc4ccccc43)nc2c1
[b] Cc1sc2nc(Cn3cnc4ccccc43)cc(=O)n2c1C
INPUT: When the recorded solubility kinetic values are compared, which is smaller: that of a or that of b ? Respond using the label that marks the chosen record.
OUTPUT: b

###

molecular target: UniProt:P14618; assay: Activation of human PKM2 assessed as production of ATP at infinite concentration after 10 mins by lactate dehydrogenase-coupled enzyme assay relative to FBP
value type: max activation (%)

Before answering, review these 2 worked examples.
INSERT INTO results (molecule_smiles, measured) VALUES
  ('O=c1cc(Cn2cnc3ccccc32)nc2ccc(Cl)cn12', 156),
  ('Cc1ccc2nc(Cn3cnc4ccccc43)cc(=O)n2c1', 149);

[P] COc1ccc2nc(Cn3cnc4ccccc43)cc(=O)n2c1
[Q] Cc1cn2c(=O)cc(Cn3cnc4ccccc43)nc2s1
INPUT: Between the entries labelled P and Q , which has a larger max activation value on record? Respond using the label that marks the chosen record.
OUTPUT: Q
(Q: 189%, P: 123%)

###

assay: Passive permeability from apical to basolateral side of dog RRCK cells; assay type: ADME, cell-based, Canis lupus familiaris, MDCKII-LE; settings: MDCK, read-out: permeability
value type: Papp A→B (×10⁻⁶ cm/s)

Before answering, review these 5 worked examples.
INSERT INTO measurements (molecule_smiles, value_type, unit_string, measured) VALUES
  ('Cc1cccn2c(=O)cc(Cn3cnc4ccccc43)nc12', 'Papp A→B', '×10⁻⁶ cm/s', 24.2),
  ('CCc1ccc(C)n2c(=O)cc(Cn3cnc4ccccc43)nc12', 'Papp A→B', '×10⁻⁶ cm/s', 16.2),
  ('CCc1nn2c(=O)cc(Cn3cnc4ccccc43)nc2s1', 'Papp A→B', '×10⁻⁶ cm/s', 17.6),
  ('O=c1cc(Cn2cnc3ccccc32)nc2ccc(Cl)cn12', 'Papp A→B', '×10⁻⁶ cm/s', 22.2),
  ('Cc1ccn2c(=O)cc(Cn3cnc4ccccc43)nc2c1', 'Papp A→B', '×10⁻⁶ cm/s', 21.3);

[A] Cc1cccc2nc(Cn3cnc4ccccc43)cc(=O)n12
[B] Cc1cn2c(=O)cc(Cn3cnc4ccccc43)nc2s1
INPUT: When the recorded Papp A→B values are compared, which is smaller: that of A or that of B ? Respond using the label that marks the chosen record.
OUTPUT: B
(B: 14.3 ×10⁻⁶ cm/s, A: 20.5 ×10⁻⁶ cm/s)

###

test: Passive permeability from apical to basolateral side of dog RRCK cells; assay type: ADME, cell-based, Canis lupus familiaris, MDCKII-LE; settings: MDCK, read-out: permeability
value type: Papp A→B (×10⁻⁶ cm/s)

INSERT INTO results (molecule_smiles, value_type, measured) VALUES
  ('COc1cccc(NS(=O)(=O)c2cc3c(cc2Cl)NC(=O)CO3)c1', 'Papp A→B', 8.8),
  ('Cc1csc2nc(Cn3cnc4ccccc43)cc(=O)n12', 'Papp A→B', 23.4),
  ('O=c1cc(Cn2cnc3ccccc32)nc2sccn12', 'Papp A→B', 17.3),
  ('COc1ccc2nc(Cn3cnc4ccccc43)cc(=O)n2c1', 'Papp A→B', 25.8);

[P] O=c1cc(Cn2cnc3ccccc32)nc2scc(-c3ccccc3)n12
[Q] Cc1sc2nc(Cn3cnc4ccccc43)cc(=O)n2c1C
INPUT: Between the entries labelled P and Q , which has a larger Papp A→B value on record? Respond using the label that marks the chosen record.
OUTPUT: Q
(Q: 22.9 ×10⁻⁶ cm/s, P: 11.5 ×10⁻⁶ cm/s)

###

biological target: UniProtKB P14618; assay: Activation of human PKM2 assessed as production of ATP at infinite concentration after 10 mins by lactate dehydrogenase-coupled enzyme assay relative to FBP
value type: max activation (%)

INSERT INTO results (molecule_smiles, unit_string, measured) VALUES
  ('O=c1cc(Cn2cnc3ccccc32)nc2sccn12', '%', 162);

[a] O=c1cc(Cn2cnc3ccccc32)nc2ccccn12
[b] COc1cccc(NS(=O)(=O)c2cc3c(cc2Cl)NC(=O)CO3)c1
INPUT: When the recorded max activation values are compared, which is smaller: that of a or that of b ? Respond using the label that marks the chosen record.
OUTPUT: b

###

experiment: Intrinsic clearance in human liver microsomes; type: ADME, Microsome; conditions: read-out: CLH
value type: microsomal CLint (µL/min/mg)

[a] COc1cccc(NS(=O)(=O)c2cc3c(cc2Cl)NC(=O)CO3)c1
[b] O=c1cc(Cn2cnc3ccccc32)nc2sccn12
[c] CCc1ccc(C)n2c(=O)cc(Cn3cnc4ccccc43)nc12
[d] Cc1ccn2c(=O)cc(Cn3cnc4ccccc43)nc2c1
INPUT: In a descending ranking, list each entry from above by its microsomal CLint, from the largest value down to the smallest. Use the labels to give the ranking in the order requested.
OUTPUT: c, a, d, b
(c: 184 µL/min/mg, a: 22.4 µL/min/mg, d: 13.3 µL/min/mg, b: 8 µL/min/mg)

[P] Cc1csc2nc(Cn3cnc4ccccc43)cc(=O)n12
[Q] Cc1cccn2c(=O)cc(Cn3cnc4ccccc43)nc12
INPUT: When the recorded microsomal CLint values are compared, which is smaller: that of P or that of Q ? Respond using the label that marks the chosen record.
OUTPUT: P

[P] Cc1cn2c(=O)cc(Cn3cnc4ccccc43)nc2s1
[Q] Cc1sc2nc(Cn3cnc4ccccc43)cc(=O)n2c1C
INPUT: When the recorded microsomal CLint values are compared, which is smaller: that of P or that of Q ? Respond using the label that marks the chosen record.
OUTPUT: P
(P: 8 µL/min/mg, Q: 12.5 µL/min/mg)

###

experiment: Kinetic solubility of the compound at pH 7.4; assay type: physicochemical; settings: buffer, read-out: Kinetic_solubility
value type: solubility kinetic (µM)

[I] Cc1cccc2nc(Cn3cnc4ccccc43)cc(=O)n12
[II] Cc1csc2nc(Cn3cnc4ccccc43)cc(=O)n12
[III] COc1cccc(NS(=O)(=O)c2cc3c(cc2Cl)NC(=O)CO3)c1
INPUT: In a descending ranking, list each entry from above by its solubility kinetic, from the largest value down to the smallest. Use the labels to give the ranking in the order requested.
OUTPUT: I, II, III

###

molecular target: Pyruvate kinase PKM (Homo sapiens); assay: Activation of human PKM2 assessed as production of ATP at infinite concentration after 10 mins by lactate dehydrogenase-coupled enzyme assay relative to FBP
Sequence (P14618 2-531 limits assumed): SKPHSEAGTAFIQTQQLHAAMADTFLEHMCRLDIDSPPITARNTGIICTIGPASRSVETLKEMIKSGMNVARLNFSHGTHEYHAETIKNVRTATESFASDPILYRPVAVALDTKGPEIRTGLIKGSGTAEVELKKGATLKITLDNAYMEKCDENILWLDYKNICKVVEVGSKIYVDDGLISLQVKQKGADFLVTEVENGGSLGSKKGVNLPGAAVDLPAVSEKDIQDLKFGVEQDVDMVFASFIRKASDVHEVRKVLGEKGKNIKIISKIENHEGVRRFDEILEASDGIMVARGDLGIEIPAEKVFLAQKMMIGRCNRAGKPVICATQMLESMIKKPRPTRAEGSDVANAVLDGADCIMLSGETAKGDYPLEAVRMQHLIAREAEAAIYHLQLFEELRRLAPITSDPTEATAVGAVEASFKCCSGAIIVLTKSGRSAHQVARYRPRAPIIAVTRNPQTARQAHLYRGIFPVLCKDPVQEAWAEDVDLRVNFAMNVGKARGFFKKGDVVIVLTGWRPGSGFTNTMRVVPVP
value type: max activation (%)

INSERT INTO assay_data (molecule_smiles, value_type, unit_string, measured) VALUES
  ('Cc1cccc2nc(Cn3cnc4ccccc43)cc(=O)n12', 'max activation', '%', 198),
  ('CCc1nn2c(=O)cc(Cn3cnc4ccccc43)nc2s1', 'max activation', '%', 140),
  ('Cc1cccn2c(=O)cc(Cn3cnc4ccccc43)nc12', 'max activation', '%', 172),
  ('CCc1ccc(C)n2c(=O)cc(Cn3cnc4ccccc43)nc12', 'max activation', '%', 135),
  ('Cc1sc2nc(Cn3cnc4ccccc43)cc(=O)n2c1C', 'max activation', '%', 160),
  ('Cc1ccn2c(=O)cc(Cn3cnc4ccccc43)nc2c1', 'max activation', '%', 161),
  ('Cc1csc2nc(Cn3cnc4ccccc43)cc(=O)n12', 'max activation', '%', 136),
  ('O=c1cc(Cn2cnc3ccccc32)nc2scc(-c3ccccc3)n12', 'max activation', '%', 167),
  ('Cc1ccc2nc(Cn3c(Cc4ccccc4)nc4ccccc43)cc(=O)n2c1', 'max activation', '%', 148);

###

experiment: Intrinsic clearance in human liver microsomes; assay type: ADME, Microsome; details: read-out: CLH
value type: microsomal CLint (µL/min/mg)

INSERT INTO results (molecule_smiles, measured) VALUES
  ('O=c1cc(Cn2cnc3ccccc32)nc2scc(-c3ccccc3)n12', 8),
  ('CCc1nn2c(=O)cc(Cn3cnc4ccccc43)nc2s1', 8);

###

This section presents compounds with their documented microsomal CLint values.
assay: Intrinsic clearance in human liver microsomes; assay type: ADME, Microsome; conditions: read-out: CLH

INSERT INTO assay_data (molecule_smiles, measured) VALUES
  ('O=c1cc(Cn2cnc3ccccc32)nc2ccc(Cl)cn12', '< 8 µL/min/mg');

INPUT: Consider the compound shown here: COc1ccc2nc(Cn3cnc4ccccc43)cc(=O)n2c1 What is its recorded microsomal CLint?
OUTPUT: < 8 µL/min/mg

INPUT: Moving on to Cc1cccc2nc(Cn3cnc4ccccc43)cc(=O)n12
OUTPUT: < 8 µL/min/mg
